Exercise: state measured self-cleavage kobs at 2500 uM GlcN6P for each of the variants provided.
B1: glmS ribozyme (parent)
chain: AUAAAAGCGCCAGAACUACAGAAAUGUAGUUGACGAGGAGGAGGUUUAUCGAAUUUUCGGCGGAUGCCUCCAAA

Variants of: B1
Test: self-cleavage kobs at 2500 uM GlcN6P; higher = faster cleavage; RNA array
Details: with glucosamine-6-phosphate
Fewer inactive variants are shown than the library holds.
The response must be a number in s⁻¹ with no trailing unit.

Please fill in: self-cleavage kobs at 2500 uM GlcN6P reported for C16A C71A = 0.000187

Please fill in: self-cleavage kobs at 2500 uM GlcN6P reported for G51U U69G = 7e-05

Please fill in: self-cleavage kobs at 2500 uM GlcN6P reported for U54A G66U = 0.00141

Please fill in: self-cleavage kobs at 2500 uM GlcN6P reported for A53U C68U = 0.00421

Please fill in: self-cleavage kobs at 2500 uM GlcN6P reported for G43C U45A C67U = 0.00269

Please fill in: self-cleavage kobs at 2500 uM GlcN6P reported for A33G C50G C68G = 0.000213

Please fill in: self-cleavage kobs at 2500 uM GlcN6P reported for A39U U65C = 0.00149

Please fill in: self-cleavage kobs at 2500 uM GlcN6P reported for U47G C71U = 0.00216

Please fill in: self-cleavage kobs at 2500 uM GlcN6P reported for U47A A64C = 7.85e-05

Attribution: the supplement of paper PMC7125110
